As shown below, each of these compounds has a reported ED50 value.
- System: Mus musculus
- assay explanation: Acute CNS toxicity against arrhythmogenic effects of chloroform in mice after sc administration
- Type: functional
- condition label: Central nervous system
observable: ED50 (µmol/kg)

[
  {
    "compound": "Cc1cccc(C)c1NC(=O)C(C)N (stereo unspecified) [TOCAINIDE]",
    "tgt": "Mus musculus",
    "numeric readout": 760
  },
  {
    "compound": "CCN(CC)CC(=O)Nc1c(C)cccc1C",
    "tgt": "Mus musculus",
    "numeric readout": 180
  },
  {
    "compound": "Cc1cccc(C)c1NC(=O)CN [GLYCINEXYLIDIDE]",
    "tgt": "Mus musculus",
    "numeric readout": 620
  },
  {
    "compound": "Cc1cccc(C)c1N(CCO)C(=O)CN",
    "tgt": "Mus musculus",
    "numeric readout": 1080
  },
  {
    "compound": "CCN(CC)CCN(C(=O)CN1C(=O)c2ccccc2C1=O)c1c(C)cccc1C",
    "tgt": "Mus musculus",
    "numeric readout": 10
  },
  {
    "compound": "CCN(CC)CCN(C(=O)CN(CC)CC)c1c(C)cccc1C",
    "tgt": "Mus musculus",
    "numeric readout": 600
  }
]

###

- Test system: Mus musculus
- assay explanation: Antiarrhythmic activity against arrhythmogenic effects of chloroform in mice after sc administration.
- Type: functional
- condition label: Heart
In plain terms, low ED50, meaning strictly below 200 µmol/kg, gives Met, and everything else gives Not met.

[
  {
    "compound structure": "CCN(CC)CC(=O)N(CC)c1c(C)cccc1C",
    "label class": "Met"
  },
  {
    "compound structure": "Cc1cccc(C)c1N(CCN)C(=O)CN",
    "label class": "Not met"
  },
  {
    "compound structure": "CCN(CC)CCN(C(=O)CN)c1c(C)cccc1C",
    "label class": "Not met"
  },
  {
    "compound structure": "CCOCCN(C(=O)CN)c1c(C)cccc1C",
    "label class": "Met"
  },
  {
    "compound structure": "CCN(CC)CC(=O)N(CCO)c1c(C)cccc1C",
    "label class": "Met"
  },
  {
    "compound structure": "CCN(CC)CC(=O)N(CCN)c1c(C)cccc1C",
    "label class": "Met"
  },
  {
    "compound structure": "CCCN(C(=O)CN(CC)CC)c1c(C)cccc1C",
    "label class": "Met"
  },
  {
    "compound structure": "CCOCCN(C(=O)CN(CC)CC)c1c(C)cccc1C",
    "label class": "Met"
  }
]

###

- assay explanation: Therapeutic index is defined as the ratio of ED50(ataxia)/ED50(protection)
- condition label: read-out: Therapeutic index
// class assignment uses selectivity ratio with these ranges: 0 = under 1, 1 = from 1 up to 2, 2 = 2 and over

[
  {
    "compound": "CCOCCN(C(=O)CN(CC)CC)c1c(C)cccc1C",
    "label class": 1
  },
  {
    "compound": "CCN(CC)CCN(C(=O)CN(CC)CC)c1c(C)cccc1C",
    "label class": 1
  },
  {
    "compound": "CCN(CC)CCN(C(=O)CN)c1c(C)cccc1C",
    "label class": 1
  },
  {
    "compound": "Cc1cccc(C)c1NC(=O)C(C)N (stereo not drawn) [TOCAINIDE]",
    "label class": 1
  },
  {
    "compound": "CCOCCN(C(=O)CN)c1c(C)cccc1C",
    "label class": 0
  },
  {
    "compound": "Cc1cccc(C)c1NC(=O)CN [GLYCINEXYLIDIDE]",
    "label class": 0
  },
  {
    "compound": "CCN(CC)CC(=O)N(CC)c1c(C)cccc1C",
    "label class": 1
  },
  {
    "compound": "CCN(CC)CC(=O)N(CCO)c1c(C)cccc1C",
    "label class": 2
  },
  {
    "compound": "Cc1cccc(C)c1N(CCN)C(=O)CN",
    "label class": 2
  },
  {
    "compound": "Cc1cccc(C)c1N(CCO)C(=O)CN",
    "label class": 0
  },
  {
    "compound": "CCN(CC)CC(=O)N(CCN)c1c(C)cccc1C",
    "label class": 2
  },
  {
    "compound": "CCCN(C(=O)CN(CC)CC)c1c(C)cccc1C",
    "label class": 0
  }
]
